Source: patent US7534915B2

# PROCEDURE_DETAILS: Gel test (vial inversion)
# Assay type: physicochemical
# EXPERIMENTAL_SETUP: 3 mg/mL in H2O
MEASUREMENT_LABEL: Gel test

COMPOUND_STRUCTURE_STRING | Gel test
CSCC[C@H](NC(=O)[C@@H]1C[C@H](C(=O)O)C[C@H](C(=O)O)C1)C(=O)Nc1ccc2ccccc2c1 | slightly crystalline gel
COc1ccc(NC(=O)[C@H](Cc2ccccc2)NC(=O)[C@@H]2C[C@H](C(=O)O)C[C@H](C(=O)O)C2)cc1 | clear gel
O=C(O)[C@@H]1C[C@H](C(=O)O)C[C@H](C(=O)N[C@@H](Cc2ccccc2)C(=O)Nc2ccc3ccccc3c2)C1 | slightly crystalline gel
COc1ccc(NC(=O)[C@H](Cc2ccccc2)NC(=O)[C@@H]2C[C@H](C(=O)NCCOCCO)C[C@H](C(=O)NCCOCCO)C2)cc1 | clear gel

We next turn to a different molecule, shown below.
query: Field request: Gel test | item: COC(=O)[C@H](Cc1ccccc1)NC(=O)[C@@H]1C[C@H](C(=O)O)C[C@H](C(=O)N[C@@H](Cc2ccccc2)C(=O)OC)C1
result: clear gel
